Reported values of growth inhibition for individual entries
- PROTOCOL_DESCRIPTION: NCI Yeast Anticancer Drug Screen. Data for the mlh1 rad18 strain (AID 175)
- TEST_CONDITIONS: S. cerevisiae mlh1 rad18 strain growth inhibition; at 5.0 µM (retest, dose inferred, filed as 0.5); stronger effect = higher value
The panel holds about 79,000 compounds, 15% with a hit somewhere; the sample as a whole holds those more often.
MEASURE_NAME: growth inhibition (%)

1) O=c1[nH]c(=O)n(CCCO)cc1F
47
2) N=c1oc2ccccc2cc1-c1nc2ccccc2[nH]1
6
3) CSc1ccc2c(c1)C(N1CCN(C)CC1)Cc1ccccc1S2 (stereo not given)
35
4) Cc1ccc(Cl)c2c(=O)c3ccccc3[nH]c12
2
5) NNc1nnc(-c2ccccc2)nc1Cc1ccccc1
-30
6) CN(C)c1ccc(/C=C/c2ccnc3ccc4ccccc4c23)cc1
-3
7) Cc1[nH]nc(C(F)(F)F)c1N=NN(C)C
25
8) CCCCCCCCCC/C=C\CC(=O)O
4
9) C=Cc1c(C)c(O)cc2c1-c1ccc(O)c(C)c1CC2
69
10) Cc1c(N=Nc2ccc(Cl)cc2)c(C)n(C2OC(CO)C(O)C(O)C2O)c(=S)c1C#N (stereo not given)
-19
